src = patent US20160297889A1

Target: T1, CAPRIN-1 protein expressed on the membrane surface of human cancer cells (human, UniProt Q14444 2-709)
T1 sequence (looked up): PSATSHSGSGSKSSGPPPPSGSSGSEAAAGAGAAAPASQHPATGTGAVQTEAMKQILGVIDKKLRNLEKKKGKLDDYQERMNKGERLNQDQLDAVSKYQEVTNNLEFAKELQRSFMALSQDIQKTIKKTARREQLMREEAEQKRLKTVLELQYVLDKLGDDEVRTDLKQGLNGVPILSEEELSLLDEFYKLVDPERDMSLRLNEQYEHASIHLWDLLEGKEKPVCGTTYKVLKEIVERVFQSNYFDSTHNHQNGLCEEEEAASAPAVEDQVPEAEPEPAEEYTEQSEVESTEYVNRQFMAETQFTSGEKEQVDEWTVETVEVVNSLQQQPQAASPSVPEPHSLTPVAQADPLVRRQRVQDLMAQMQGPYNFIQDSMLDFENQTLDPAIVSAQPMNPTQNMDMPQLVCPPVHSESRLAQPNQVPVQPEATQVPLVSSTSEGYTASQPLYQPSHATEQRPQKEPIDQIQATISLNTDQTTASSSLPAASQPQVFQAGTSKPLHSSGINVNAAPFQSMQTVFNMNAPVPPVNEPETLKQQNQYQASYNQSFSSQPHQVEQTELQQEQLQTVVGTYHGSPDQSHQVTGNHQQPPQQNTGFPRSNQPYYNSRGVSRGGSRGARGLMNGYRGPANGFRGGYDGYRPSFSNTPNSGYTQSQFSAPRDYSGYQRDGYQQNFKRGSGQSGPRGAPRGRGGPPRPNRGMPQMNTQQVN
Experiment: cell-based or functional assay
Measured Attribute: ADCC cytotoxic activity (51Cr release) on U-87MG

Binder	Test Result
humanized antibody #9 (antibody, V domains shown) VH: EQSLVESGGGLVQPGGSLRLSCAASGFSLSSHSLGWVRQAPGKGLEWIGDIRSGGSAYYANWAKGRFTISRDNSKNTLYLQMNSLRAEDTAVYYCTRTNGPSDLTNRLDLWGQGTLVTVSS VL: DIVLTQSPSSLSASVGDRVTINCQASQSLYNNENLAWFQQKPGKVPKRLIYGASTLASGVSSRFSGSGSGTEFTLTISSLQCEDFAIYYCLGEFSCGSADCFAFGGGTKVEIK	≥ 24%
humanized antibody #1 (antibody, V domains shown) VH: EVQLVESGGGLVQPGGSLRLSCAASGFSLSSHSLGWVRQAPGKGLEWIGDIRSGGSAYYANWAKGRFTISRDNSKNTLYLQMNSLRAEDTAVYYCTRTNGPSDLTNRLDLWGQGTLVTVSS VL: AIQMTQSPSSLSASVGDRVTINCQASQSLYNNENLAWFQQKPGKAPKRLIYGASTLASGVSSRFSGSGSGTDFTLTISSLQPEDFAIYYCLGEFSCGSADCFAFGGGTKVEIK	≥ 24%
humanized antibody #10 (antibody, V domains shown) VH: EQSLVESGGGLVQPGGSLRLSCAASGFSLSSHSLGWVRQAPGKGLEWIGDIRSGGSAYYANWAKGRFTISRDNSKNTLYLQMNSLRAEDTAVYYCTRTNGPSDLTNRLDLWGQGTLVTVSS VL: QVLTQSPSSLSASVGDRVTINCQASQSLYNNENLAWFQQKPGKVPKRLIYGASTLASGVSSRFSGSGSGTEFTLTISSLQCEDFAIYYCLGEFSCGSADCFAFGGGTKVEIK	≥ 36%
humanized antibody #5 (antibody, V domains shown) VH: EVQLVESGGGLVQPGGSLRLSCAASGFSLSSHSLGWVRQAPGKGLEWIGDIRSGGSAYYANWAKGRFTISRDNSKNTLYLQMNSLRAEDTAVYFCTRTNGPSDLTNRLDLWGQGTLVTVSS VL: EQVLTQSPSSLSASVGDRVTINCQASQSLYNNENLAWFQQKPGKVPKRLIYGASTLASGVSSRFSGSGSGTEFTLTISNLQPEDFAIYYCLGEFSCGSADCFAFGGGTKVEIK	≥ 29%
